test system: lactoperoxidase reaction system (singlet oxygen); assay: Lactoperoxidase system (singlet oxygen system); assay type: biochemical; details: at 200 μM of compound; pH 4.5, 37° C.
# maps each entry to its Chemiluminescence intensity (% of control)

CC(C)(C)c1c(O)ccc2c1CCO2 [Comparison 1, reference compound]    6.0 % of control
CCCc1c2c(c(C(C)(C)C)c(O)c1C(C)(C)C)CC(C)(C)O2 [q]    73.4 % of control
CC(C)(C)c1cc2c(c(C(C)(C)C)c1O)CCO2 [Compound a]    56.6 % of control

Exam item: Which Chemiluminescence intensity (% of control) is reported with lactoperoxidase reaction system (singlet oxygen) for this entry: CCCCCCCCC1Cc2c(cc(C(C)(C)C)c(O)c2C(C)(C)C)O1 (centres unmarked) [Compound g] ?
Marked response: 76.0 % of control

Exam item: lactoperoxidase reaction system (singlet oxygen) / Chemiluminescence intensity (% of control) / CC1Cc2c(ccc(O)c2C(C)(C)C)O1 (centres unmarked) [Comparison 2, reference compound] : value?
Marked response: 15.1 % of control

Exam item: Test system lactoperoxidase reaction system (singlet oxygen); read-out Chemiluminescence intensity (% of control); what value for CCC(C)c1cc2c(c(C(C)(C)C)c1O)CCO2 (centres unmarked) [Comparison 7, reference compound] ?
Marked response: 0.8 % of control

Exam item: Recorded Chemiluminescence intensity (% of control) for CC(C)(C)c1cc(O)c(C(C)(C)C)c2c1OCC2 [Comparison 5, reference compound] with lactoperoxidase reaction system (singlet oxygen), please?
Marked response: 4.5 % of control

Exam item: So what Chemiluminescence intensity (% of control) did CC1Cc2c(c(C(C)(C)C)cc(O)c2C(C)(C)C)O1 (centres unmarked) [Comparison 6, reference compound] get with lactoperoxidase reaction system (singlet oxygen)?
Marked response: 8.1 % of control
